conditionsUsed: in n-octanol, 308.15 K
Catalogue of solubility (mole fraction) values

{"smilesNotation": "COc1cnc(NS(=O)(=O)c2ccc(N)cc2)nc1", "solubility (mole fraction)": 0.000101}
{"smilesNotation": "COc1cc(NS(=O)(=O)c2ccc(N)cc2)ncn1", "solubility (mole fraction)": "9.52e-05"}
{"smilesNotation": "COc1cc(NS(=O)(=O)c2ccc(N)cc2)nc(OC)n1", "solubility (mole fraction)": 0.000194}

---

conditionsUsed: in n-octanol, 323.15 K
endpointName: solubility (mole fraction)

{"smilesNotation": "COc1cc(NS(=O)(=O)c2ccc(N)cc2)ncn1", "endpointName": "solubility (mole fraction)", "measuredNumber": 0.00012}
{"smilesNotation": "COc1cc(NS(=O)(=O)c2ccc(N)cc2)nc(OC)n1", "endpointName": "solubility (mole fraction)", "measuredNumber": 0.000261}
{"smilesNotation": "COc1cnc(NS(=O)(=O)c2ccc(N)cc2)nc1", "endpointName": "solubility (mole fraction)", "measuredNumber": 0.000123}

---

Catalogue of solubility (mole fraction) values
conditionsUsed: in n-octanol, 333.15 K

{"smilesNotation": "COc1cc(NS(=O)(=O)c2ccc(N)cc2)nc(OC)n1", "solubility (mole fraction)": 0.000332}
{"smilesNotation": "COc1cnc(NS(=O)(=O)c2ccc(N)cc2)nc1", "solubility (mole fraction)": 0.000141}
{"smilesNotation": "COc1cc(NS(=O)(=O)c2ccc(N)cc2)ncn1", "solubility (mole fraction)": 0.000136}

---

conditionsUsed: in n-octanol, 328.15 K

{"smilesNotation": "COc1cc(NS(=O)(=O)c2ccc(N)cc2)nc(OC)n1", "solubility (mole fraction)": 0.000294}
{"smilesNotation": "COc1cc(NS(=O)(=O)c2ccc(N)cc2)ncn1", "solubility (mole fraction)": 0.000129}
{"smilesNotation": "COc1cnc(NS(=O)(=O)c2ccc(N)cc2)nc1", "solubility (mole fraction)": 0.000132}

---

Catalogue of solubility (mole fraction) values
conditionsUsed: in n-octanol, 318.15 K
endpointName: solubility (mole fraction)

{"smilesNotation": "COc1cc(NS(=O)(=O)c2ccc(N)cc2)nc(OC)n1", "result": 0.000235}
{"smilesNotation": "COc1cnc(NS(=O)(=O)c2ccc(N)cc2)nc1", "result": 0.000115}
